System: OVCAR-5
Test: NCI tumour cell line growth inhibition, 48 h
Calls of active or inactive are those of the source. Rule as the data show it: active = GI50 up to about 1.1 µM and inactive = higher.
Readings of GI50 for the listed compounds
ASSAY_METRIC: GI50

[[record]]
compound = "CC1=CC2C(O1)C1C(=O)C=CC(=O)C1=CC2[N+](=O)[O-] (stereo unspecified)"
assay_target = "OVCAR-5"
observed = "24.5 µM (inactive)"

[[record]]
compound = "N=c1oc2ccccc2cc1C(=O)Nc1cccc2ccccc12"
assay_target = "OVCAR-5"
observed = "> 100 µM (inactive)"

[[record]]
compound = "CCOC(=O)C1(C#N)C(=O)c2cc[n+](CC[n+]3ccc4c(c3)C(=O)C(C#N)(C(=O)OCC)C4=O)cc2C1=O (stereo unspecified)"
assay_target = "OVCAR-5"
observed = "> 100 µM (inactive)"

[[record]]
compound = "Cc1ccc(S(=O)(=O)NNC(=O)Nc2ccc(Cl)cc2)cc1"
assay_target = "OVCAR-5"
observed = "> 100 µM (inactive)"

[[record]]
compound = "COC(=O)C(=O)C(CC(=O)Nc1c(C)cccc1C)C(=O)OC (stereo unspecified)"
assay_target = "OVCAR-5"
observed = "> 100 µM (inactive)"

[[record]]
compound = "CC(=O)O[C@H]1CC[C@@]2(C)C(=CC[C@H]3C(CC#N)[C@@](C)(C#N)CCC32)C1 (stereo partly specified)"
assay_target = "OVCAR-5"
observed = "> 100 µM (inactive)"

[[record]]
compound = "COc1ccc(/C=C/c2cc(OC)c(OC(C)=O)c(OC)c2)cc1"
assay_target = "OVCAR-5"
observed = "1.94 µM (inactive)"

[[record]]
compound = "N#Cc1ccccc1OCCOc1ccccc1C#N"
assay_target = "OVCAR-5"
observed = "> 100 µM (inactive)"

[[record]]
compound = "CC(C)(C)NC(=O)/C(=C\\Sc1ccccc1)c1ccccc1"
assay_target = "OVCAR-5"
observed = "> 100 µM (inactive)"

[[record]]
compound = "NC1CC(=O)c2c(I)sc(I)c21 (stereo unspecified)"
assay_target = "OVCAR-5"
observed = "24.1 µM (inactive)"

[[record]]
compound = "Cc1cccc(NC(=O)CSc2nnc(Cc3ccccc3)o2)c1"
assay_target = "OVCAR-5"
observed = "> 100 µM (inactive)"


---

Tested on: MDA-MB-435
Assay: NCI tumour cell line growth inhibition, 48 h
Calls of active or inactive are those of the source. No stated cut-off is given here; in the data, active = GI50 up to about 1.1 µM and inactive = higher.
Classes used: YES for active, NO for inactive

[[record]]
compound = "CN(Cc1cccc2ccsc12)/N=C\\c1ccc(Cl)cc1"
assay_target = "MDA-MB-435"
label_class = "NO"

[[record]]
compound = "O=c1c2ccccc2nc2n1CCc1c-2[nH]c2cc3c(cc12)OCO3"
assay_target = "MDA-MB-435"
label_class = "NO"

[[record]]
compound = "COC(=O)C1=Nc2c(C)nn(-c3ccccc3)c2N=C(c2ccccc2)C1"
assay_target = "MDA-MB-435"
label_class = "NO"

[[record]]
compound = "Clc1ccccc1-c1nn2c(CCCCCCCCc3nnc4sc(-c5ccccc5Cl)nn34)nnc2s1"
assay_target = "MDA-MB-435"
label_class = "NO"

[[record]]
compound = "CCOC(=O)C(NC(=O)c1ccco1)(Nc1nc2ccc(OCC)cc2s1)C(F)(F)F (stereo not drawn)"
assay_target = "MDA-MB-435"
label_class = "NO"

[[record]]
compound = "COC(OC)[C@@H]1OC[C@H](n2cnc3c(N)ncnc32)[C@H]1O"
assay_target = "MDA-MB-435"
label_class = "NO"

[[record]]
compound = "O=c1cc(-c2ccc(O)cc2)oc2cc(O[C@@H]3O[C@H](CO)[C@@H](O)[C@H](O)[C@H]3O)cc(O)c12 [APIGETRIN]"
assay_target = "MDA-MB-435"
label_class = "NO"

[[record]]
compound = "O=C1c2ccccc2-c2nnc3c(c21)-c1ccccc1C3"
assay_target = "MDA-MB-435"
label_class = "NO"

[[record]]
compound = "COc1cc(/C=C2/SC(c3ccccc3)N(c3ccccc3Cl)C2=O)cc(OC)c1OC (stereo not drawn)"
assay_target = "MDA-MB-435"
label_class = "NO"

[[record]]
compound = "CC1(C)CC(=O)c2c(nc3c(ccc4ccccc43)c2-c2ccc(NC(=O)CCCC(=O)Nc3ccc(-c4c5c(nc6c4ccc4ccccc46)CC(C)(C)CC5=O)cc3)cc2)C1"
assay_target = "MDA-MB-435"
label_class = "NO"

[[record]]
compound = "CC(C)(C)OC(=O)NC(Cc1ccc(OC(C)(C)C)cc1)C(=O)N[C@H]1CCC[C@H]1C(=O)NC(Cc1ccccc1)C(=O)N1CCCC1C(N)=O (stereo partly drawn)"
assay_target = "MDA-MB-435"
label_class = "NO"

[[record]]
compound = "Clc1nc(-[n+]2ccc(-c3ccncc3)cc2)nc(Nc2ccccc2)c1Cl"
assay_target = "MDA-MB-435"
label_class = "NO"

[[record]]
compound = "COC1C=COC2(C)Oc3c(C)c(O)c4c(O)c(c(C5SCCS5)c(O)c4c3C2=O)NC(=O)/C(C)=C\\C=CC(C)C(O)C(C)C(O)C(C)C(OC(C)=O)C1C (stereo not drawn)"
assay_target = "MDA-MB-435"
label_class = "NO"

[[record]]
compound = "CC(C)=CC(=O)c1[nH]c2ccccc2c1CC(=O)NCCc1cn(C(c2ccccc2)(c2ccccc2)c2ccccc2)cn1"
assay_target = "MDA-MB-435"
label_class = "NO"

[[record]]
compound = "CCCC(=O)Nc1cc(/C=C/C(=O)N2C[C@@H]3C[C@]34C2=CC(=O)c2[nH]cc(C)c24)n(C)c1"
assay_target = "MDA-MB-435"
label_class = "YES"

[[record]]
compound = "O=C1CCCCC/C1=C\\c1ccc([N+](=O)[O-])cc1"
assay_target = "MDA-MB-435"
label_class = "NO"

[[record]]
compound = "COC1=CCC2=C(CCN(C(=O)C3CC3)C2Cc2ccc(OC)c(O)c2)C1 (stereo not drawn)"
assay_target = "MDA-MB-435"
label_class = "NO"

[[record]]
compound = "Oc1cc(O)cc(-c2nc3cc(F)ccc3s2)c1"
assay_target = "MDA-MB-435"
label_class = "NO"

